- experimental protocol: HepG2 cell viability effects, profiling panel, calcein-AM fluorescence, 48 h, basal (AID 1164); note: test concentration not given here
- particulars: higher = more signal
For each record, write down the corresponding z-score.

State the recorded z-score for this entry: COCCOC(=O)N1C(=O)[C@@]2(c3cc(C#CCCO)ccc31)[C@H](c1ccc(O)cc1)N1[C@H](c3ccccc3)[C@H](c3ccccc3)OC(=O)[C@H]1[C@@H]2C(N)=O
1.97

Thanks! And [N-]=[N+]=NCc1ccccc1[C@@H]1OC(c2ccc(OCCCO)cc2)=N[C@]1(Cc1ccccc1)C(=O)N1CCCCC1 ?
0.525

Thanks! And COc1cc(CO)ccc1OC(C)=O ?
1.04

Thanks! And O=C1O[C@@H](c2ccccc2)[C@@H](c2ccccc2)N2[C@@H](c3ccc(OCCO)cc3)[C@]3(C(=O)Nc4ccccc43)[C@@H](C(=O)Nc3nc4ccccc4s3)[C@H]12 ?
0.27

Thanks! And CN1C(=O)C2C=CC(C(O)c3ccccn3)N(Nc3ccccc3)C2C1=O (centres undefined) ?
-0.164

Thanks! And Cc1ccc(F)cc1S(=O)(=O)N[C@@H]1CCN(Cc2ccc(-c3ccccc3)cc2)C1 ?
-4.73

Thanks! And COCCOC(=O)N1C(=O)[C@@]2(c3cc(C#CCCO)ccc31)[C@H](C(=O)NC[C@H](O)c1ccccc1)[C@H]1C(=O)O[C@H](c3ccccc3)[C@H](c3ccccc3)N1[C@@H]2c1ccc(O)cc1 ?
0.289

Thanks! And COC(=O)C(CC#Cc1ccc2c(c1)[C@]1(C(=O)N2)[C@H](c2ccc(OCCO)cc2)N2[C@H](c3ccccc3)[C@H](c3ccccc3)OC(=O)[C@H]2[C@@H]1C(=O)NC[C@H](O)c1ccccc1)C(=O)OC ?
1.31

Thanks! And O=C1C2C=CC(C(O)c3cccs3)N(Nc3ccccc3F)C2C(=O)N1c1ccccc1 (centres undefined) ?
-0.901

Thanks! And C=CC[C@@]1(C(=O)NCC(O)CO)N=C(c2ccc(OCCCO)cc2)O[C@@H]1c1ccccc1N=[N+]=[N-] (some centres undefined) ?
-0.805

Thanks! And CC(=O)C1=CCC(c2ccccc2)N(S(=O)(=O)c2ccc(C)cc2)C1 (centres undefined) ?
-0.727

Thanks! And COc1ccc([Si](C)(C)[C@H]2[C@H](CCn3cc(CCO)nn3)O[C@@]3(C(=O)N(Cc4ccc(N5CCOC5=O)cc4)c4ccccc43)[C@@H]2C)cc1 ?
0.161

Thanks! And COCCOC(=O)N1C(=O)[C@@]2(c3cc(C#Cc4ccc(OC)cc4)ccc31)[C@H](C(=O)N1CCN(c3ncccn3)CC1)[C@H]1C(=O)O[C@H](c3ccccc3)[C@H](c3ccccc3)N1[C@@H]2c1ccc(O)cc1 ?
0.986

Thanks! And Cc1ccc([C@H]2[C@H](C(=O)O)[C@H](Sc3ccccc3)[C@@H](C(C)C)N2S(=O)(=O)c2ccc(C)cc2)cc1 ?
-0.447
